# System: skin above the upper lip
# Procedure Details: Cooling sensation on facial skin, ointment applied to skin above the upper lip
# Format: in vivo, human
# Conditions: 40 mM Aquaphor ointment, skin above upper lip; time when coolness drops below 2 units
Parameter: Duration of Action On-Off (minutes): Off (offset) (min)
Quick note: give the figure in min, leave out the unit.

// known answers, use as guide
Compound	System Under Test	Observed Measurement
CCOC(=O)C(C)NC(=O)C1CC(C)CCC1C(C)C [L-Ala Et Ester]	skin above the upper lip	52
CCOC(=O)CN(C)C(=O)C1CC(C)CCC1C(C)C (stereo not drawn) [Sar Et Ester]	skin above the upper lip	65
COC(=O)C(C)NC(=O)C1CC(C)CCC1C(C)C [L-Ala Me Ester]	skin above the upper lip	80
CC1CCC(C(C)C)C(C(=O)NC(C)C)C1 (stereo not drawn) [WS-10, reference compound]	skin above the upper lip	25
CCNC(=O)C1CC(C)CCC1C(C)C (stereo not drawn) [WS-3, reference compound]	skin above the upper lip	23

Problem: Form: Entry = CCOC(=O)CNC(=O)[C@@H]1C[C@H](C)CC[C@H]1C(C)C [Gly Et Ester (WS-5), N-p-menthanecarbonyl glycine ethyl ester, reference compound] | System = skin above the upper lip | Duration of Action On-Off (minutes): Off (offset) = ____
Result: 37

Problem: Request body: readout Duration of Action On-Off (minutes): Off (offset), system skin above the upper lip, query CC(C)[C@@H]1CC[C@@H](C)C[C@H]1C(=O)N[C@H]1CCOC1=O [L-Hsl] . Return the value.
Result: 87

Problem: Under skin above the upper lip: Duration of Action On-Off (minutes): Off (offset) value of CC(C)[C@@H]1CC[C@@H](C)C[C@H]1C(=O)NC1CCOC1=O (mixture of isomers) [racemic Hsl] ?
Result: 86

Problem: Notebook: pull reported Duration of Action On-Off (minutes): Off (offset) for skin above the upper lip, entry COC(=O)CNC(=O)C1CC(C)CCC1C(C)C (stereo not drawn) [Gly Me Ester (WS-31), reference compound]
Result: 25

====

# Tested on: skin above the upper lip
# Procedure Details: Cooling sensation on facial skin, ointment applied to skin above the upper lip
# Format: in vivo, human
# Conditions: 40 mM (1% wt/vol) ointment, skin above upper lip
Parameter: Duration of Skin Cooling

Here is how some compounds turned out for Duration of Skin Cooling.
Compound	Duration of Skin Cooling
CCC(C)NC(=O)C1CC(C)CCC1C(C)C (centres unmarked) [WS-34, reference compound]	not active
COC(=O)C1CCCN1C(=O)[C@@H]1C[C@H](C)CC[C@H]1C(C)C (some centres unmarked)	not active
COC(=O)[C@@H](C)NC(=O)[C@@H]1C[C@H](C)CC[C@H]1C(C)C	1.9 h
CCCOc1ccc(NC(=O)C2CC(C)CCC2C(C)C)cc1 (centres unmarked)	not active

Please turn your attention to the following entry.
Problem: Please tell me: Duration of Skin Cooling of CCOc1ccc(NC(=O)C2CC(C)CCC2C(C)C)cc1 (centres unmarked) , system skin above the upper lip?
Result: not active

====

# Test system: skin above the upper lip
# Procedure Details: Cooling sensation on facial skin, ointment applied to skin above the upper lip
# Format: in vivo, human
# Conditions: 40 mM Aquaphor ointment, skin above upper lip; time when coolness drops below 2 units
Values of Duration of Action On-Off (minutes): Off (offset) greater than or equal to 50 min map to Satisfied; values below map to Not satisfied.

Compound	Assigned Category
COC(=O)[C@@H](C)NC(=O)[C@@H]1C[C@H](C)CC[C@H]1C(C)C	Satisfied

Problem: Check if Duration of Action On-Off (minutes): Off (offset) >= 50 min (inclusive). Item: COc1ccc(NC(=O)C2CC(C)CCC2C(C)C)cc1 (centres unmarked) [WS-12, N-p-methoxyphenyl-p-menthane-carboxamide, reference compound]
Result: Not satisfied

Problem: Quick check: does CC1CCC(C(C)C)C(C(=O)NC(C)(C)C)C1 (centres unmarked) [WS-14, reference compound] have Duration of Action On-Off (minutes): Off (offset) greater than or equal to 50 min?
Result: Not satisfied

Problem: Confirm if Duration of Action On-Off (minutes): Off (offset) reported for the compound CC1CCC(C(C)C)C(C(=O)NC(C)(C)CO)C1 (centres unmarked) [WS-11, reference compound] is 50 min or above.
Result: Not satisfied

Problem: Is it the case that CC(C)[C@@H]1CC[C@@H](C)C[C@H]1C(=O)N[C@@H]1CCOC1=O has Duration of Action On-Off (minutes): Off (offset) reaching or exceeding 50 min?
Result: Satisfied

Problem: Reported Duration of Action On-Off (minutes): Off (offset) reaches at least 50 min for CCOC(=O)CCNC(=O)C1CC(C)CCC1C(C)C (centres unmarked) ?
Result: Satisfied

Problem: Is reported Duration of Action On-Off (minutes): Off (offset) greater than or equal to 50 min here: CCOC(=O)[C@@H](C)NC(=O)[C@@H]1C[C@H](C)CC[C@H]1C(C)C
Result: Satisfied
